Reference source for all entries: a melting point compilation (Tetko et al.; mined from patent text by program, amines drawn as free bases though some values may be those of a salt)

result-type: melting point

>>> measured("O=C(NS(=O)(=O)NCCCN1CCC(Oc2ccc(Cl)c(Cl)c2)CC1)c1ccccc1")
"93 to 106 °C"
>>> measured("Cc1cccc(OCC(O)CNCCOc2ccccc2)c1 (stereo not given)")
"81 to 82 °C"
>>> measured("COC(=O)C(N)Cc1ccc(Oc2ccc(O)cc2)cc1 (stereo not given)")
"123 to 124 °C"
>>> measured("CCCCCCCCCCCCn1sncc1=O")
"68 to 70 °C"
>>> measured("COCc1nc2nccnc2c(=O)n1C")
"130 to 132 °C"
>>> measured("O=C(Nc1ccc(Oc2ccc(Cl)cc2)cc1)Nc1nonc1-c1ccccc1")
"195 °C"
>>> measured("Oc1nc2cccnc2n1Cc1ccccc1")
"177 to 179 °C"
>>> measured("CCc1cc2c(O)c(C(=O)O)cnc2s1")
"238 to 239 °C"
>>> measured("Cc1cncc(Oc2cccc(NC(=O)N3CCc4c(cnc5[nH]nc(Br)c45)C3)c2)n1")
"221 to 223 °C"
>>> measured("CCCS(=O)(=O)N(c1cc(Cl)ccc1C(=O)OC)S(=O)(=O)CCC")
"156 to 158 °C"
>>> measured("ONc1ccccc1F")
"70 to 71 °C"
>>> measured("CC(Cn1ncnn1)n1nnc2cc3c(=O)n(CC4CC4)nnc3cc2c1=O (stereo not given)")
"134 to 136 °C"
>>> measured("Clc1ccccc1CCN1CCN(c2n[nH]c3c2CCc2ccccc2-3)CC1")
"134 to 136 °C"
>>> measured("Cn1cc(C2=C(c3cn(CCCNC(N)=NC#N)c4ccccc34)C(=O)NC2=O)c2ccccc21")
"168 to 170 °C"
>>> measured("C=CCOc1ccc(C[C@@H](NC(C)=O)C(=O)O)cc1")
"75 °C"
